test system: RPMI-8226; experiment: NCI tumour cell line growth inhibition, 48 h
Calls of active or inactive are those of the source. Cut-off read from the data, not from the text of the source: active = GI50 up to about 1.1 µM and inactive = higher.
Select the matching outcome among yes for active, no for inactive

Consider the following illustrative entries.
{"columns": ["structure.smiles.string", "study.target", "cat"],
 "data": [
  ["O=C1CCCC/C1=C(\\Br)I", "RPMI-8226", "no"],
  ["COS(C)(=O)=O", "RPMI-8226", "no"],
  ["CCN(CC)CC[n+]1ccc2c(C)c3[nH]c4ccc(O)cc4c3c(C)c2c1", "RPMI-8226", "no"]
]}

Record request — test call for C=CCN1COc2c(cc3c4c(cccc24)C(=O)O3)C1
no

Record request — test call for COc1cc([C@H]2c3[nH]c4ccccc4c3C[C@H]3COC(=O)N32)cc(OC)c1O
yes

Record request — test call for Cc1ccc2c(c1)CNc1ccc(C)cc1CN2
no

Record request — test call for CCCCCCC(N)(CCCCCC)C(=O)Nn1c(C)ccc1C
no

Record request — test call for CCOc1ccc(/C(C=O)=C(\Cl)c2ccc(OC)cc2)cc1
no

Record request — test call for N=C/N=C/C(=S)O[C@@H]1C(=O)N2CCC[C@@]23CCCC[C@@H]13
no

Record request — test call for CCOC(=O)c1oc2ccc(OC)c3c2c1CCC3
no

Record request — test call for Cc1ccc(S(=O)(=O)Nn2c(-c3ccccc3)c(C#N)c(-c3ccc(Cl)cc3)c(C#N)c2=O)cc1
no

====

system: SF-539; assay: NCI tumour cell line growth inhibition, 48 h
Activity calls are given as the source filed them. Rule as the data show it: active = GI50 up to about 1.1 µM and inactive = higher.
Select the matching outcome among Yes (active), No (inactive)

Consider the following illustrative entries.
{"columns": ["molecule", "cat"],
 "data": [
  ["O=C1NCC2=C1CCC1c3ccccc3CCN21 (stereo not given)", "No"],
  ["Cc1cc(C)nc(NS(=O)(=O)c2ccc(NNC(=O)c3cccc4c(=O)c5ccccc5[nH]c34)cc2)n1", "No"]
]}

Record request — test call for COc1cc2c(cc1O)CCN[C@@]21CS[C@H]2c3c(OC(C)=O)c(C)c4c(c3C(COC1=O)N1C2C2c3c(cc(C)c(OC)c3O)CC([C@@H]1O)N2C)OCO4 (stereo not given in full)
Yes

Record request — test call for c1ccc(C2=NC3OC2c2ccccc23)cc1 (stereo not given)
No

Record request — test call for COC(=O)c1ccccc1Nc1nc(-c2cccs2)nc2cc(OC)c(OC)cc12
No

Record request — test call for COc1cc2nc3n(c2cc1OC)C(O)c1c(Cl)nc(SC)nc1S3 (stereo not given)
No

Record request — test call for O=C(O)CCC(=O)Oc1ccc(O)c2c1CCCC2=O
No

Record request — test call for N#Cc1c(OCCF)c2ccccc2n2c1nc1ccccc12
No

Record request — test call for CC(C)=CCC/C(C)=C\CC/C(C)=C/CO
No

Record request — test call for CCOC(=O)CC(C)C1(C=O)CCCCC1=O (stereo not given)
No

====

test system: CCRF-CEM; assay: NCI tumour cell line growth inhibition, 48 h
Activity calls are given as the source filed them. Cut-off read from the data, not from the text of the source: active = GI50 up to about 1.1 µM and inactive = higher.
value.kind: GI50

{"columns": ["compound", "result"],
 "data": [
  ["[N-]=[N+]=Nc1cc(=O)[nH]nc1-c1ccccc1", "> 100 µM (inactive)"]
]}

Give GI50 for each of the items listed below.
1. S=c1[nH]c2c(Cl)c(Cl)c(Cl)c(Cl)c2[nH]1
2. COc1cc2c(cc1OC)C(C(CO)CO)N(CC(O)CCl)CC2 (stereo unspecified)
3. O=C(O)COc1cccc2ccccc(=O)c12
4. CC12CC1C(c1cccc([N+](=O)[O-])c1)(c1cccc([N+](=O)[O-])c1)N=N2 (stereo unspecified)

["1.16 µM (inactive)", "> 100 µM (inactive)", "> 100 µM (inactive)", "3.36 µM (inactive)"]

Entry under test: C1=N\CCOCC/N=C\c2ccc(cc2)OCc2cccc(n2)COc2ccc/1cc2 . Its GI50 was > 100 µM (inactive)

====

system: HCT-116; assay: NCI tumour cell line growth inhibition, 48 h
The source made the active and inactive calls. Cut-off read from the data, not from the text of the source: active = GI50 up to about 1.1 µM and inactive = higher.
Select the matching outcome among yes (1) (active), no (0) (inactive)

Consider the following illustrative entries.
{"columns": ["molecule", "study.target", "cat"],
 "data": [
  ["Cc1nc2ccccc2c(=O)n1NC(=O)c1ccccc1O", "HCT-116", "no (0)"],
  ["O=C1NCC2=C1CCC1c3ccccc3CCN21 (stereo not drawn)", "HCT-116", "no (0)"],
  ["CC(=O)c1cn(-c2ccc(Cl)cc2)c(=O)c2c(N)n[nH]c12", "HCT-116", "no (0)"],
  ["NS(=O)(=O)c1ccc2c(c1)OCCOCCOCCOCCO2", "HCT-116", "no (0)"],
  ["CCCC[C@H]1CCN2C[C@@H](O)[C@@H](O)[C@H]2[C@@H]1O", "HCT-116", "no (0)"]
]}

Record request — test call for COC(=O)c1c[nH]c(=O)[nH]c1=O
no (0)

Record request — test call for COc1ccc(NC(=O)CC/C(CC(=O)c2ccco2)=N/NC(N)=S)cc1
no (0)

Record request — test call for CC(=O)OC1CCC2(C)C3CCC4(C)C(c5ccc(=O)oc5)CC5OC54C3CCC2(O)C1 (stereo not drawn)
yes (1)

====

system: RPMI-8226; assay: NCI tumour cell line growth inhibition, 48 h
The source made the active and inactive calls. Rule as the data show it: active = GI50 up to about 1.1 µM and inactive = higher.
Select the matching outcome among active, inactive

Consider the following illustrative entries.
{"columns": ["compound", "cat"],
 "data": [
  ["N#C/C(=C/n1c(=S)[nH]c2ccc([N+](=O)[O-])cc21)C(N)=O", "inactive"],
  ["N#Cc1nc(CCC(c2nc(C#N)c(N)o2)N2C(=O)c3ccccc3C2=O)oc1N (centres undefined)", "inactive"],
  ["CC12CC1C(c1cccc([N+](=O)[O-])c1)(c1cccc([N+](=O)[O-])c1)N=N2 (centres undefined)", "inactive"],
  ["CC1(C)N=C(N)N=C(N)N1c1cccc(OCCOc2ccc([N+](=O)[O-])cc2)c1", "inactive"]
]}

Now, please, on to the next compound.
Record request — test call for C1=N\CCOCC/N=C\c2ccc(cc2)OCc2cccc(n2)COc2ccc/1cc2
inactive

====

test system: UO-31; assay: NCI tumour cell line growth inhibition, 48 h
Activity calls are given as the source filed them. No stated cut-off is given here; in the data, active = GI50 up to about 1.1 µM and inactive = higher.
Please go through the items and note down their GI50.

Known results for molecules:
{"columns": ["molecule", "result"],
 "data": [
  ["CCOC(=O)C1(C/C=C(/C)Cl)CCCC1=O (stereo unspecified)", "> 100 µM (inactive)"],
  ["COc1ccc(OC2OC(CO)C(O)C(O)C2O)cc1 (stereo unspecified)", "> 100 µM (inactive)"],
  ["COc1ccc2c(c1)Oc1cc(O)ccc1[C@H]2c1ccccc1C(=O)NC(C)c1ccccc1 (stereo partly specified)", "10.9 µM (inactive)"],
  ["CCOC(=O)/C(C#N)=C1\\c2c([nH]c(=S)[nH]c2=O)Oc2ccc3ccccc3c21", "20 µM (inactive)"]
]}

Give GI50 for each of the items listed below.
1. CC(C)=CCC/C(C)=C/CCC1(C)C2COC(=O)C21 (stereo unspecified)
2. COc1cc(OC)c(OC)cc1/C=C/c1ccccn1
3. O=c1[nH]c(=O)n([C@H]2C[C@@H](CO)[C@@H](O)C2)cc1I
4. O=C(O)CCC(C(=O)O)N1C(=O)c2ccccc2C1=O (stereo unspecified)
5. Cc1cc2c(=O)c3ccccc3oc2c(C#N)c1C
6. O=C(C1OC1c1ccc(F)cc1)C12CC3CC(CC(C3)C1)C2 (stereo unspecified)
7. O=C(CNc1nccs1)Nn1cnc2ccc(S(=O)(=O)Nc3nccs3)cc2c1=O

1: 43.3 µM (inactive); 2: > 10 µM (inactive); 3: > 100 µM (inactive); 4: > 100 µM (inactive); 5: > 100 µM (inactive); 6: 20.9 µM (inactive); 7: > 100 µM (inactive)

====

system: HCC 2998; test: NCI tumour cell line growth inhibition, 48 h
Activity calls are given as the source filed them. Cut-off read from the data, not from the text of the source: active = GI50 up to about 1.1 µM and inactive = higher. *1 amine or outer side, *2 acyl side, *3 side chain or, on linkers, in order; H or OH if unused. Where a SMILES comes first, the peptide text is derived from it. Bridges are numbered along the chain shown (N, C = ends). Roman numbers before positions name the chains, in order. [ ]: non-standard residue; d: D form. Actinocin(9to1) = Cc1c2oc3c(C)ccc(C(=O)[*:1])c3nc-2c(C(=O)[*:2])c(N)c1=O; Hyp = O=C(O)[CH]1C[CH](O)CN1; NMeV = CN[CH](C(=O)O)C(C)C; Sar = CNCC(=O)O
Select the matching outcome among TRUE = active, FALSE = inactive

Consider the following illustrative entries.
{"columns": ["compound", "cat"],
 "data": [
  ["COc1cc(OC)c(OC)cc1/C=C/c1ccccn1", "FALSE"],
  ["Cc1c2oc3c(C)ccc(C(=O)NC4C(=O)NC(C(C)C)C(=O)N5CC(O)CC5C(=O)N(C)CC(=O)N(C)C(C(C)C)C(=O)OC4C)c3nc-2c(C(=O)NC2C(=O)NC(C(C)C)C(=O)N3CC(O)CC3C(=O)N(C)CC(=O)N(C)C(C(C)C)C(=O)OC2C)c(N)c1=O (stereo unspecified) (I: TV[Hyp][Sar][NMeV] / II: TV[Hyp][Sar][NMeV]; ester I:1-I:C, II:1-II:C; linker I:N-II:N via Actinocin(9to1); configuration not given here)", "TRUE"],
  ["COc1ccc2c(c1)Oc1cc(O)ccc1[C@H]2c1ccccc1C(=O)NC(C)c1ccccc1 (stereo partly specified)", "FALSE"],
  ["CN1C(=O)C(=CN)C(=O)N(C)C1=O", "FALSE"],
  ["Cn1nnnc1SC(F)(F)c1nc2ccccc2o1", "FALSE"],
  ["NC(CCc1nc(-c2ccccc2)cs1)C(=O)O (stereo unspecified)", "FALSE"]
]}

Record request — test call for CCCCc1ccc(NC(=N)N)cc1
FALSE

Record request — test call for CN(C)Cc1cc(C(=O)/C=C/c2ccc(Cl)cc2)cc(CN(C)C)c1O
FALSE

Record request — test call for CC1=C(C(=O)CC(=O)C(=O)Nc2ccc(C)c(C)c2)Sc2ccccc2N1
FALSE

Record request — test call for Cc1cccc(C)c1NC(=O)/C(=N/NC(N)=S)C(C)C(=O)c1ccc(Cl)cc1 (stereo unspecified)
FALSE
